// pEC50 lookup, one value per entry
Tested on: genotype 1a (H77) wild-type transient HCV replicon in Huh-7-derived cells
experiment notes: Transient-transfected HCV replicon, genotype 1a wild type
Assay type: cell-based
stated conditions: Hepatitis C virus; transient-transfected replicon genotype 1a wild type, 72 h; read-out: EC50 1A WT
pEC50: −log10 of the molar value.
parameter: pEC50

| compound | test value |
| --- | --- |
| CC(C)(C)[C@@H]1NC(=O)O[C@@H]2C[C@@H]3C[C@@H]3[C@H]2CCCCCn2c(nc3cc(C#N)ccc3c2=O)O[C@@H]2C[C@@H](C(=O)N[C@]3(C(=O)NS(=O)(=O)C4(C)CC4)C[C@H]3C(F)F)N(C2)C1=O [Example 25] | 8.74 |
| COc1ccc2nc3c(nc2c1)O[C@@H]1C[C@@H](C(=O)N[C@]2(C(=O)NS(=O)(=O)C4CC4)C[C@H]2CC(F)F)N(C1)C(=O)[C@H](C(C)(C)C)NC(=O)O[C@@H]1C[C@@H]2C[C@@H]2[C@H]1CCCCC3 [Example 3] | 8.29 |
| CC(C)(C)[C@@H]1NC(=O)O[C@@H]2C[C@@H]3C[C@@H]3[C@H]2CCCCC(F)(F)c2nc3ccc(OC(F)F)cc3nc2O[C@@H]2C[C@@H](C(=O)N[C@]3(C(=O)NS(=O)(=O)C4CC4)C[C@H]3C(F)F)N(C2)C1=O [Example 16] | 8.74 |
| CC(C)(C)[C@@H]1NC(=O)O[C@@H]2C[C@@H]3C[C@@H]3[C@H]2CC/C=C/C(F)(F)c2nc3ccc(C#N)cc3nc2O[C@@H]2C[C@@H](C(=O)N[C@]3(C(=O)NS(=O)(=O)C4(C)CC4)C[C@H]3C(F)F)N(C2)C1=O [Example 13] | 8.55 |

---

System: genotype 4a stable HCV replicon (ED43) in Huh-7-derived cells
experiment notes: Stable subgenomic HCV replicon, genotype 4a, Renilla luciferase
Format: cell-based
stated conditions: Hepatitis C virus, 72 h, read-out: EC50 4A RLUC
// EC50 lookup, one value per entry

| compound | EC50 (nM) |
| --- | --- |
| COc1ccc2nc3c(nc2c1)O[C@@H]1C[C@@H](C(=O)N[C@]2(C(=O)NS(=O)(=O)C4CC4)C[C@H]2CC(F)F)N(C1)C(=O)[C@H](C(C)(C)C)NC(=O)O[C@@H]1C[C@@H]2C[C@@H]2[C@H]1CCCCC3 | 3.4 |
| CC(C)(C)[C@@H]1NC(=O)O[C@@H]2C[C@@H]3C[C@@H]3[C@H]2CCCCC(F)(F)c2nc3ccc(C#N)cc3nc2O[C@@H]2C[C@@H](C(=O)N[C@]3(C(=O)NS(=O)(=O)C4(C)CC4)C[C@H]3C(F)F)N(C2)C1=O | 1.4 |
| COc1ccc2nc3c(nc2c1)O[C@@H]1C[C@@H](C(=O)N[C@]2(C(=O)NS(=O)(=O)C4CC4)C[C@H]2C(F)F)N(C1)C(=O)[C@H](C(C)(C)C)NC(=O)O[C@@H]1C[C@@H]2C[C@@H]2[C@H]1CCCCC3(F)F (racemic) | 1.4 |
| CC(C)(C)[C@@H]1NC(=O)O[C@@H]2C[C@@H]3C[C@@H]3[C@H]2CCCCC(F)(F)c2nc3cc(F)c(F)cc3nc2O[C@@H]2C[C@@H](C(=O)N[C@]3(C(=O)NS(=O)(=O)C4CC4)C[C@H]3C(F)F)N(C2)C1=O (racemic) | 2.6 |

---

system under test: NS3 genotype 1b protease (Hepatitis C virus genotype 1b, UniProt Q9WMX2, E1202G)
Construct: Purified NS3 protease domain (amino acids 1-181) of the genotype 1b and 3a virus were generated as above; K3 hexahistidine tag (N); rTEV protease cleavage site (N); made in house; host or cells: E. coli BL21AI
Sequence (Q9WMX2 1027-1207 E1202G, other chains not shown): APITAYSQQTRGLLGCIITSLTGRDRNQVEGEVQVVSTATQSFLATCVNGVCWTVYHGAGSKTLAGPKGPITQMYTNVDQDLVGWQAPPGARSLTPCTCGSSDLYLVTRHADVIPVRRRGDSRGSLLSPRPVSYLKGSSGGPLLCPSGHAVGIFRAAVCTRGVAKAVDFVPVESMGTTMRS
experiment notes: Ki determination, NS3 protease genotype 1b (fluorogenic depsipeptide substrate)
Assay type: biochemical
stated conditions: NS3 protease domain genotype 1b, NS4A peptide
parameter: Ki (pM)

| molecule | parameter | result unit | test value |
| --- | --- | --- | --- |
| CC(C)(C)[C@@H]1NC(=O)O[C@@H]2C[C@@H]3C[C@@H]3[C@H]2CCCCCc2nc3ccc(F)cc3nc2O[C@@H]2C[C@@H](C(=O)N[C@]3(C(=O)NS(=O)(=O)C4CC4)C[C@H]3C(F)F)N(C2)C1=O | Ki | pM | 20 |
| COc1ccc2nc3c(nc2c1)O[C@@H]1C[C@@H](C(=O)N[C@]2(C(=O)NS(=O)(=O)C4(C)CC4)C[C@H]2C(F)F)N(C1)C(=O)[C@H](C(C)(C)C)NC(=O)O[C@@H]1C[C@@H]2C[C@@H]2[C@H]1CCCCC3(F)F | Ki | pM | 20 |
| COc1ccc2nc3c(nc2c1)O[C@@H]1C[C@@H](C(=O)N[C@]2(C(=O)NS(=O)(=O)C4(C)CC4)C[C@H]2CC(F)F)N(C1)C(=O)[C@H](C(C)(C)C)NC(=O)O[C@@H]1C[C@@H]2C[C@@H]2[C@H]1CCCCC3(F)F | Ki | pM | 40 |
| CC(C)(C)[C@@H]1NC(=O)O[C@@H]2C[C@@H]3C[C@@H]3[C@H]2CCCCC(F)(F)c2nc3ccccc3nc2O[C@@H]2C[C@@H](C(=O)N[C@]3(C(=O)NS(=O)(=O)C4CC4)C[C@H]3C(F)F)N(C2)C1=O | Ki | pM | 10 |
| CC(C)(C)[C@@H]1NC(=O)O[C@@H]2C[C@@H]3C[C@@H]3[C@H]2CCCCC(F)(F)c2nc3cc(F)c(F)cc3nc2O[C@@H]2C[C@@H](C(=O)N[C@]3(C(=O)NS(=O)(=O)C4CC4)C[C@H]3C(F)F)N(C2)C1=O (racemic) | Ki | pM | 30 |
| COc1ccc2nc3c(nc2c1)O[C@@H]1C[C@@H](C(=O)N[C@]2(C(=O)NS(=O)(=O)C4CC4)C[C@H]2CC(F)F)N(C1)C(=O)[C@H](C(C)(C)C)NC(=O)O[C@@H]1C[C@@H]2C[C@@H]2[C@H]1CCCCC3 | Ki | pM | 30 |
| COc1ccc2nc3c(nc2c1)O[C@@H]1C[C@@H](C(=O)N[C@]2(C(=O)NS(=O)(=O)C4CC4)C[C@H]2C(F)F)N(C1)C(=O)[C@H](C(C)(C)C)NC(=O)O[C@@H]1C[C@@H]2C[C@@H]2[C@H]1CCCCC3 | Ki | pM | 20 |
| COc1ccc2nc3c(nc2c1)O[C@@H]1C[C@@H](C(=O)N[C@]2(C(=O)NS(=O)(=O)C4CC4)C[C@H]2C(F)F)N(C1)C(=O)[C@H](C(C)(C)C)NC(=O)O[C@H]1[C@@H]2CC[C@@H](C2)[C@@H]1CCCCC3 | Ki | pM | 10 |

---

Tested on: genotype 1a stable HCV replicon (H77) in Huh-7-derived cells
experiment notes: Stable subgenomic HCV replicon, genotype 1a, Renilla luciferase
Format: cell-based
stated conditions: Hepatitis C virus, stable replicon genotype 1a, 72 h, read-out: EC50 1A RLUC
// EC50 lookup, one value per entry

| molecule | system under test | EC50 / nM |
| --- | --- | --- |
| CC(C)(C)[C@@H]1NC(=O)O[C@@H]2C[C@@H]3C[C@@H]3[C@H]2CCCCC(F)(F)c2nc3ccccc3nc2O[C@@H]2C[C@@H](C(=O)N[C@]3(C(=O)NS(=O)(=O)C4(C)CC4)C[C@H]3C(F)F)N(C2)C1=O [Example 17] | genotype 1a stable HCV replicon (H77) in Huh-7-derived cells | 5.8 |
| CC(C)(C)[C@@H]1NC(=O)O[C@@H]2C[C@@H]3C[C@@H]3[C@H]2CCCCC(F)(F)c2nc3ccc(C#N)cc3nc2O[C@@H]2C[C@@H](C(=O)N[C@]3(C(=O)NS(=O)(=O)C4(C)CC4)C[C@H]3C(F)F)N(C2)C1=O [Example 14] | genotype 1a stable HCV replicon (H77) in Huh-7-derived cells | 1.4 |
| COc1ccc2nc3c(nc2c1)O[C@@H]1C[C@@H](C(=O)N[C@]2(C(=O)NS(=O)(=O)C4(C)CC4)C[C@H]2C(F)F)N(C1)C(=O)[C@H](C(C)(C)C)NC(=O)O[C@@H]1C[C@@H]2C[C@@H]2[C@H]1CCCCC3 [Example 2] | genotype 1a stable HCV replicon (H77) in Huh-7-derived cells | 1.1 |
| CC(C)(C)[C@@H]1NC(=O)O[C@@H]2C[C@@H]3C[C@@H]3[C@H]2CCCCC(F)(F)c2nc3ccc(OC(F)F)cc3nc2O[C@@H]2C[C@@H](C(=O)N[C@]3(C(=O)NS(=O)(=O)C4CC4)C[C@H]3C(F)F)N(C2)C1=O [Example 16] | genotype 1a stable HCV replicon (H77) in Huh-7-derived cells | 3.8 |

---

System: NS3/4a protease inhibitor resistant variant R155K in genotype 1a transient HCV replicon
experiment notes: Transient-transfected HCV replicon, genotype 1a R155K
Type: cell-based
stated conditions: Hepatitis C virus, 72 h, read-out: EC50 1A R155K

| compound | result unit | EC50 |
| --- | --- | --- |
| CC(C)(C)[C@@H]1NC(=O)O[C@@H]2C[C@@H]3C[C@@H]3[C@H]2CCCCC(F)(F)c2nc3cc(F)c(F)cc3nc2O[C@@H]2C[C@@H](C(=O)N[C@]3(C(=O)NS(=O)(=O)C4CC4)C[C@H]3C(F)F)N(C2)C1=O (racemic) | nM | 1.2 |
| CC(C)(C)[C@@H]1NC(=O)O[C@@H]2C[C@@H]3C[C@@H]3[C@H]2CC/C=C/C(F)(F)c2nc3ccc(C#N)cc3nc2O[C@@H]2C[C@@H](C(=O)N[C@]3(C(=O)NS(=O)(=O)C4(C)CC4)C[C@H]3C(F)F)N(C2)C1=O | nM | 2 |
| CC(C)(C)[C@@H]1NC(=O)O[C@@H]2C[C@@H]3C[C@@H]3[C@H]2CCCCCc2nc3ccc(Cl)cc3nc2O[C@@H]2C[C@@H](C(=O)N[C@]3(C(=O)NS(=O)(=O)C4CC4)C[C@H]3C(F)F)N(C2)C1=O | nM | 1.9 |
| CC(C)(C)[C@@H]1NC(=O)O[C@@H]2C[C@@H]3C[C@@H]3[C@H]2CCCCCn2c(nc3cc(C#N)ccc3c2=O)O[C@@H]2C[C@@H](C(=O)N[C@]3(C(=O)NS(=O)(=O)C4(C)CC4)C[C@H]3C(F)F)N(C2)C1=O | nM | 2 |
| COc1ccc2nc3c(nc2c1)O[C@@H]1C[C@@H](C(=O)N[C@]2(C(=O)NS(=O)(=O)C4(C)CC4)C[C@H]2C(F)F)N(C1)C(=O)[C@H](C(C)(C)C)NC(=O)O[C@@H]1[C@H]2CC[C@H](C2)[C@H]1CCCCC3 | nM | 35 |
| COc1ccc2nc3c(nc2c1)O[C@@H]1C[C@@H](C(=O)N[C@]2(C(=O)NS(=O)(=O)C4(C)CC4)C[C@H]2C(F)F)N(C1)C(=O)[C@H](C(C)(C)C)NC(=O)O[C@H]1[C@H](CCCCC3)C[C@H]2C[C@H]21 | nM | 148 |
| COc1ccc2nc3c(nc2c1)O[C@@H]1C[C@@H](C(=O)N[C@]2(C(=O)NS(=O)(=O)C4CC4)C[C@H]2C(F)F)N(C1)C(=O)[C@H](C(C)(C)C)NC(=O)O[C@H]1[C@H](CCCCC3)C[C@H]2C[C@H]21 | nM | 180 |
| CC(C)(C)[C@@H]1NC(=O)O[C@@H]2C[C@@H]3C[C@@H]3[C@H]2CCCCC(F)(F)c2nc3ccccc3nc2O[C@@H]2C[C@@H](C(=O)N[C@]3(C(=O)NS(=O)(=O)C4CC4)C[C@H]3C(F)F)N(C2)C1=O | nM | 2.6 |
| CC(C)(C)[C@@H]1NC(=O)O[C@@H]2C[C@@H]3C[C@@H]3[C@H]2CCCCC(F)(F)c2nc3ccc(OC(F)F)cc3nc2O[C@@H]2C[C@@H](C(=O)N[C@]3(C(=O)NS(=O)(=O)C4CC4)C[C@H]3C(F)F)N(C2)C1=O | nM | 2 |
